The reported measurements were obtained from paper PMC9470112.

Biological target: T1, EBV LMP2 (latent membrane protein 2) peptide on HLA-A*01:01 (human)
T1 peptide: ESEERPPTPY
Assay: multimer staining
Property: binding result

// known answers, use as guide
EBV-LMP2^ESE-specific TCR from donor A (TCR) alpha TRAV12 TRAJ3 CDR3: CVVTGYSSASKIIF beta TRBV6-3 TRBJ2-1 CDR3: CASSWEGQYNEQFF | recognises
EBV-LMP2^ESE-specific TCR C^2 from donor C (TCR) alpha TRAV30 TRAJ45 CDR3: CGTEDGRGGADGLTF beta TRBV6-3 TRBJ2-1 CDR3: CASSYGIYEQFF | recognises
TCR-C1 (TCR) alpha TRAV30 TRAJ45 CDR3: CGTGSGGGADGLTF beta TRBV6-3 TRBJ2-1 CDR3: CASSPEGVFNEQFF | recognises
TCR-B1 (TCR) alpha TRAV12 TRAJ3 CDR3: CVVTGYSSASKIIF beta TRBV6-3 TRBJ2-1 CDR3: CASSSEGQFNEQFF | recognises

Return reported binding result; argument: EBV-LMP2^ESE-specific TCR from donor E (TCR) alpha TRAV26 TRAJ23 CDR3: CIVSGGKLIF beta TRBV12-3/4 TRBJ2-5 CDR3: CASSSSWTSGSGETQYF recognises
